// provenance: the supplement of paper PMC9103864

# Test system: BMSC (primary human bone marrow mesenchymal stromal cells)
# Method Summary: absolute EC50 for viability; higher = less sensitive
Below: a set of entries, each annotated with reported absolute EC50 for viability.

INSERT INTO results (compound, measurement) VALUES
  ('CC1=C(/C=C/C(C)=C/C=C/C(C)=C/C(=O)O)C(C)(C)CCC1', '> 10 µM'),
  ('Nc1nccc(-c2c(-c3ccc(F)cc3)ncn2C2CCCCC2)n1', '> 10 µM');

[ask] Find the recorded absolute EC50 for viability belonging to Nc1ncnc2c1c(-c1cccc(OCc3ccccc3)c1)cn2C1CC(CN2CCC2)C1 (stereo not given) and report it.
[reply] 6.04 µM

[ask] Recorded absolute EC50 for viability of `CCN(CC)Cc1ccc2cc(COC(=O)Nc3ccc(C(=O)NO)cc3)ccc2c1` , please.
[reply] > 1 µM

[ask] Value lookup for absolute EC50 for viability; key = `CNC(=O)c1cc(Oc2ccc(NC(=O)Nc3ccc(Cl)c(C(F)(F)F)c3)cc2)ccn1`
[reply] > 1 µM

###

# Test system: BMSC (primary human bone marrow mesenchymal stromal cells)
# Method Summary: absolute EC50 for viability; higher = less sensitive
Attribute: absolute EC50 for viability

INSERT INTO measurements (compound, target_desc, measurement_name, measurement) VALUES
  ('O=C(O)c1ccc(-c2c[nH]c3ncc(-c4ccccc4)cc23)cc1C1CCCC1', 'BMSC (primary human bone marrow mesenchymal stromal cells)', 'absolute EC50 for viability', '> 10000 nM'),
  ('NC(=O)/C(=C/n1cnc(-c2cc(C(F)(F)F)cc(C(F)(F)F)c2)n1)c1cncnc1 [Eltanexor]', 'BMSC (primary human bone marrow mesenchymal stromal cells)', 'absolute EC50 for viability', '> 10000 nM'),
  ('C[C@H]1CNCCCN1S(=O)(=O)c1cccc2cncc(F)c12', 'BMSC (primary human bone marrow mesenchymal stromal cells)', 'absolute EC50 for viability', '> 10000 nM');

[ask] Request the reported absolute EC50 for viability associated with COCC1(CO)C(=O)C2CCN1CC2 (centres undefined)
[reply] > 10000 nM

[ask] What value of absolute EC50 for viability has been reported for the following compound? `Cc1cc(Nc2nc(N[C@@H](C)c3ncc(F)cn3)ncc2Cl)[nH]n1`
[reply] > 1000 nM

[ask] absolute EC50 for viability lookup needed for `C[C@H]1O[C@@H](O[C@H]2[C@@H](O)C[C@H](O[C@H]3[C@@H](O)C[C@H](O[C@H]4CC[C@@]5(C)[C@H](CC[C@@H]6[C@@H]5C[C@@H](O)[C@]5(C)[C@@H](C7=CC(=O)OC7)CC[C@]65O)C4)O[C@@H]3C)O[C@@H]2C)C[C@H](O)[C@@H]1O` , thanks.
[reply] 52.9 nM

[ask] # input compound: `Nc1nc2[nH]cnc2c(=S)[nH]1` ; wanted: its absolute EC50 for viability
[reply] 1180 nM

[ask] Fill in: absolute EC50 for viability of `O=C(Nc1nc2cccc(-c3ccc(CN4CCS(=O)(=O)CC4)cc3)n2n1)C1CC1` is ___
[reply] > 10000 nM

[ask] Look at this compound and give its reported absolute EC50 for viability. `CCNc1nc(Nc2cc(F)c(C(=O)N3CCOCC3)cc2OC)ncc1C(F)(F)F`
[reply] > 1000 nM

###

# System: BMSC (primary human bone marrow mesenchymal stromal cells)
# Method Summary: absolute EC50 for viability; higher = less sensitive
Measured absolute EC50 for viability of individual entries
Use µM as the unit, but write only the number.

INSERT INTO results (molecule, target_desc, measurement_name, measurement) VALUES
  ('Cc1sc2c(c1C)C(c1ccc(Cl)cc1)=N[C@@H](CC(=O)Nc1ccc(OCCOCCOCCOCCNc3cccc4c3C(=O)N(C3CCC(=O)NC3=O)C4=O)cc1)c1nnc(C)n1-2 (stereo not given in full) [ARV-825]', 'BMSC (primary human bone marrow mesenchymal stromal cells)', 'absolute EC50 for viability', 0.036),
  ('CCN(CC)CCCC(C)Nc1c2ccc(Cl)cc2nc2ccc(OC)cc12 (stereo not given) [Mepacrine]', 'BMSC (primary human bone marrow mesenchymal stromal cells)', 'absolute EC50 for viability', 1.58),
  ('CCCCc1nc2cc(/C=C/C(=O)NO)ccc2n1CCN(CC)CC [Pracinostat]', 'BMSC (primary human bone marrow mesenchymal stromal cells)', 'absolute EC50 for viability', 1.56),
  ('CN(C)C[C@@H]1CCn2cc(c3ccccc32)C2=C(C(=O)NC2=O)c2cn(c3ccccc23)CCO1 [Ruboxistaurin]', 'BMSC (primary human bone marrow mesenchymal stromal cells)', 'absolute EC50 for viability', 2.42);

[ask] Please give the measured absolute EC50 for viability for this molecule: CCCCCCCCc1ccc(CCC(N)(CO)CO)cc1 [Fingolimod]
[reply] 3.02

[ask] # get_value(readout='absolute EC50 for viability', item= `C[C@@]1(C(=O)Nc2ccc(F)nc2)CCCN1c1nc(Nc2cc(C3CC3)n[nH]2)c2cccn2n1` )
[reply] 7.74

###

# Test system: BMSC (primary human bone marrow mesenchymal stromal cells)
# Method Summary: absolute EC50 for viability; higher = less sensitive
Some compounds, each annotated with its measured absolute EC50 for viability.
Form entry: value (nM) — number only.

Use these answered entries as a reference point.
INSERT INTO assay_data (smiles_entry, unit_abbreviation, measurement) VALUES
  ('CCCN(CCC)C(=O)C1=Cc2ccc(-c3ccc(C(=O)N4CCCC4)cc3)cc2N=C(N)C1', 'nM', 9930),
  ('CN[C@@H]1C[C@H]2O[C@@](C)([C@@H]1OC)n1c3ccccc3c3c4c(c5c6ccccc6n2c5c31)C(=O)N[C@H]4O', 'nM', 644),
  ('CCC1=C[C@@H]2CN(C1)Cc1c([nH]c3ccccc13)[C@@](C(=O)OC)(c1cc3c(cc1OC)N(C)[C@H]1[C@@](O)(C(=O)OC)[C@H](OC(C)=O)[C@]4(CC)C=CCN5CC[C@]31[C@@H]54)C2', 'nM', 1120),
  ('CCN(CC)CCNC(=O)c1c(C)[nH]c(/C=C2\C(=O)Nc3ccc(-c4csc(-c5ccccc5)n4)cc32)c1C', 'nM', 2780),
  ('O=C(Nc1cccc(Nc2ncc(Br)c(NCCc3cnc[nH]3)n2)c1)N1CCCC1', 'nM', 2170),
  ('CC1(C)OCCn2c1nc1c(N3CCOCC3)nc(-c3cnc(N)nc3)nc12', 'nM', 644);

[ask] I'd like to know its absolute EC50 for viability. The compound in question is `CN(C)C/C=C/C(=O)Nc1cccc(C(=O)Nc2cccc(Nc3ncc(Cl)c(-c4c[nH]c5ccccc45)n3)c2)c1`
[reply] 2710

[ask] // returns reported absolute EC50 for viability for input `CS(=O)(=O)N1CCN(Cc2cc3nc(-c4cccc5[nH]ncc45)nc(N4CCOCC4)c3s2)CC1`
[reply] 1280

[ask] Entry under review: `Nc1ncnc2c1nc(N)n2[C@@H]1O[C@H](CO)[C@@H](O)[C@H]1O` . Reported absolute EC50 for viability?
[reply] 803

###

Measured absolute EC50 for viability of individual entries
# Test system: BMSC (primary human bone marrow mesenchymal stromal cells)
# Method Summary: absolute EC50 for viability; higher = less sensitive

INSERT INTO measurements (molecule, measurement) VALUES
  ('CN1CCN(c2cc(C(=O)Nc3ccc4c(c3)-c3c(c(C(N)=O)nn3-c3ccc(F)cc3)CC4)c(Cl)cn2)CC1 [PHA 408]', '> 10 µM'),
  ('COc1cc(N2CCC(N3CCN(C)CC3)CC2)ccc1Nc1ncnc(Nc2ccccc2S(=O)(=O)C(C)C)n1 [ASP3026]', '2.29 µM');

[ask] Suppose we examine the molecule CCN(CCCOc1ccc2c(Nc3cc(CC(=O)Nc4cccc(F)c4)[nH]n3)ncnc2c1)CCOP(=O)(O)O [Barasertib] ; what absolute EC50 for viability value has been reported?
[reply] > 1 µM

[ask] Report absolute EC50 for viability for COc1cccc2c1C(=O)c1c(O)c3c(c(O)c1C2=O)C[C@@](O)(C(C)=O)C[C@@H]3O[C@H]1C[C@H](N)[C@H](O)[C@H](C)O1 [Daunorubicin] please.
[reply] 0.356 µM

###

Measured absolute EC50 for viability, listed per entry for reference.
# Test system: BMSC (primary human bone marrow mesenchymal stromal cells)
# Method Summary: absolute EC50 for viability; higher = less sensitive

INSERT INTO measurements (compound, measurement) VALUES
  ('Cn1nccc1Nc1nccc(-c2ccn([C@H](CO)c3ccc(Cl)c(F)c3)c(=O)c2)n1', '> 10 µM'),
  ('NS(=O)(=O)NCCNc1nonc1/C(=N/O)Nc1ccc(F)c(Br)c1', '> 10 µM'),
  ('O=C1c2c(O)ccc(O)c2C(=O)c2c(NCCNCCO)ccc(NCCNCCO)c21', '0.185 µM'),
  ('Clc1ccc(C(c2ccccc2Cl)C(Cl)Cl)cc1 (stereo unspecified)', '> 10 µM'),
  ('CCn1c(-c2nonc2N)nc2cnc(Oc3cccc(NC(=O)c4ccc(OCCN5CCOCC5)cc4)c3)cc21', '> 10 µM');

[ask] Need absolute EC50 for viability of `CS(=O)(=O)CCNCc1ccc(-c2ccc3ncnc(Nc4ccc(OCc5cccc(F)c5)c(Cl)c4)c3c2)o1` , thanks.
[reply] > 1 µM

[ask] Name the reported absolute EC50 for viability value associated with the compound `CC1(C)CCC(CN2CCN(c3ccc(C(=O)NS(=O)(=O)c4ccc(NCC5CCOCC5)c([N+](=O)[O-])c4)c(Oc4cnc5[nH]ccc5c4)c3)CC2)=C(c2ccc(Cl)cc2)C1`
[reply] > 1 µM

[ask] Which absolute EC50 for viability is listed for `Nc1ncn([C@H]2C[C@H](O)[C@@H](CO)O2)c(=O)n1` ?
[reply] > 10 µM

[ask] Tell me the measured absolute EC50 for viability of `NCCNc1ccc(NCCN)c2c1C(=O)c1ccncc1C2=O` , please.
[reply] > 10 µM

[ask] Endpoint output: absolute EC50 for viability of `O=c1sn(-c2cccc3ccccc23)c(=O)n1Cc1ccccc1` . Value?
[reply] > 3 µM
